FYI, the data here is from ChEMBL document CHEMBL1143003.

Target: Heme oxygenase 1 (Mus musculus)
Test: Induction of HO1 in CD1 mouse liver at 1 umol, po after 6 hrs
Assay type: organism-based
Active and inactive are the calls of the source. No cut-off for these calls is given here.
measurement name: Activity

>  <compound>
CC1(C)C(=O)C(C#N)=C[C@]2(C)C3=CC(=O)C(C#N)=C[C@]3(C)CC[C@@H]12

>  <target entity>
Heme oxygenase 1 (Mus musculus)

>  <measurement name>
Activity

>  <result>
Active

$$$$
>  <compound>
CC1(C)CC[C@]2(C(=O)O)CC[C@]3(C)[C@H](C(=O)C=C4[C@@]5(C)C=C(C#N)C(=O)C(C)(C)[C@@H]5CC[C@]43C)[C@@H]2C1 [BARDOXOLONE]

>  <target entity>
Heme oxygenase 1 (Mus musculus)

>  <measurement name>
Activity

>  <result>
Active

$$$$
>  <compound>
CC1(C)CC[C@]2(C(=O)n3ccnc3)CC[C@]3(C)[C@H](C(=O)C=C4[C@@]5(C)C=C(C#N)C(=O)C(C)(C)[C@@H]5CC[C@]43C)[C@@H]2C1

>  <target entity>
Heme oxygenase 1 (Mus musculus)

>  <measurement name>
Activity

>  <result>
Active

$$$$
>  <compound>
C#C[C@]12C=C(C#N)C(=O)C=C1[C@@]1(C)C=C(C#N)C(=O)C(C)(C)[C@@H]1CC2 (racemic)

>  <target entity>
Heme oxygenase 1 (Mus musculus)

>  <measurement name>
Activity

>  <result>
Active

$$$$
